molecular target: Mu-type opioid receptor (Homo sapiens); test: Displacement of [3H]DAMGO from recombinant human mu-opioid receptor expressed in CHO cell membranes at 1 X 10^-6 M after 60 mins by liquid scintillation counting method relative to control
Sequence (P35372 whole entry): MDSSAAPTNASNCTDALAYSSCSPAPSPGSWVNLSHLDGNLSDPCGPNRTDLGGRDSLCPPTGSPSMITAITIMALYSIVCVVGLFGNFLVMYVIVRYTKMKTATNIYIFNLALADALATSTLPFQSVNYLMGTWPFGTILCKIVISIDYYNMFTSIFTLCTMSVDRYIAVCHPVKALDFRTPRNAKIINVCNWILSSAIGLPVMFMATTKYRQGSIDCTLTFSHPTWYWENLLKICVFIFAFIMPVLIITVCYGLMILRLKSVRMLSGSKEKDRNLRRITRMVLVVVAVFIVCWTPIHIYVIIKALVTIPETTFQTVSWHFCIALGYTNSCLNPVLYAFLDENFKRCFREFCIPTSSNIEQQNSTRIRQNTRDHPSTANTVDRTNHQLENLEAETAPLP
parameter-measured: inhibition (%)
Numbers only; they are read as %.

Worked examples, 2 molecules total:
* NC(=O)c1ccc(Oc2ccc(CN3CCCC3c3cccc(Cl)c3)cc2)c2ccccc12 (stereo not drawn) | 0
* Cc1cc(C)cc(C2CCCN2Cc2ccc(Oc3ccc(C(N)=O)c4ccccc34)cc2)c1 (stereo not drawn) | 0

Next molecule, please.
Req: Give Mu-type opioid receptor (Homo sapiens) inhibition for COc1ccc(C2CCCN2Cc2ccc(Oc3ccc(C(N)=O)c4ccccc34)cc2)cc1 (stereo not drawn)
Resp: 0

Source listed as ChEMBL document CHEMBL4049389.
